Values compiled from paper PMC8067507.

Tested on: HeLa (epithelioid cervix carcinoma)
Assay: Cell proliferation assay (MTT)
Format: cell-based
Conditions: Homo sapiens, 48 h, 2 days incubation, average ± SD of three experiments
pIC50: −log10 of the molar value.
Parameter Measured: pIC50

INSERT INTO assay_data (compound, parameter_measured, reported_value) VALUES
  ('CNC(=O)c1cc(Oc2ccc(NC(=O)Nc3ccc(Cl)c(C(F)(F)F)c3)cc2)ccn1 [Sorafenib, sorafenib, reference compound]', 'pIC50', 5.21),
  ('COc1ccc(/C=C/c2cccc(NC(=O)Nc3ccc(Br)cc3)c2)cc1', 'pIC50', 5.51),
  ('COc1ccc(CCc2cccc(NC(=O)Nc3ccccc3OC)c2)cc1', 'pIC50', 4.62);

[I] COc1ccc(CCc2cccc(NC(=O)Nc3cccc(OC)c3)c2)cc1
[II] COc1ccc(/C=C/c2cccc(NC(=O)Nc3ccccc3Br)c2)cc1
[III] COc1ccc(/C=C/c2cccc(NC(=O)Nc3ccc(OC)cc3)c2)cc1
[IV] COc1ccc(/C=C\c2cccc(NC(=O)Nc3ccccc3OC)c2)cc1
[V] COc1ccc(/C=C/c2cccc(NC(=O)Nc3ccccc3OC)c2)cc1
Exercise: Place the items in sequence of falling pIC50. // respond by listing labels in the order requested
Key: II, III, V, IV, I

----------
# c-Myc (%) relative expression per record follows
Tested on: c-Myc
Assay: c-Myc quantification by flow cytometry in HT-29
Assay type: cell-based, human
Details: HT-29, 10 μM, 24 h, referred to control (DMSO)
Give just the number in %; leave the unit off.

INSERT INTO assay_data (molecule, reported_value) VALUES
  ('COc1ccc(/C=C/c2cccc(NC(=O)Nc3ccc(OC)cc3)c2)cc1', 57),
  ('COc1ccc(CCc2cccc(NC(=O)Nc3ccc(OC)cc3)c2)cc1', 70),
  ('COc1ccc(/C=C/c2cccc(NC(=O)Nc3ccc(Br)cc3)c2)cc1', 49),
  ('COc1ccc(CCc2cccc(NC(=O)Nc3cccc(OC)c3)c2)cc1', 69),
  ('COc1ccc(/C=C\c2cccc(NC(=O)Nc3ccccc3OC)c2)cc1', 58),
  ('COc1ccc(/C=C\c2cccc(NC(=O)Nc3ccc(OC)cc3)c2)cc1', 47);

Exercise: Tell me the measured c-Myc (%) relative expression of `COc1ccc(/C=C\c2cccc(NC(=O)Nc3ccc(Br)cc3)c2)cc1` , please.
Key: 41

Exercise: One more molecule: Cc1c(COc2ccc(CN3CCCCC3C(=O)O)cc2Br)cccc1-c1ccccc1 (stereo not drawn) [BMS-8, reference compound]
Key: 99

Exercise: Next molecule: `COc1ccc(/C=C/c2cccc(NC(=O)Nc3cccc(OC)c3)c2)cc1`
Key: 74

----------
// reported Minimum Active Conc. (inhibition of tube formation) per item
System: HMEC-1 cells
Experiment: Tube formation inhibition assay
Type: cell-based, human
Settings: HMEC-1 on Matrigel, 20 h incubation; average of three experiments
Provide the reading as a plain figure in µM.

INSERT INTO results (molecule, reported_value) VALUES
  ('CCN(CC)CCNC(=O)c1c(C)[nH]c(/C=C2\C(=O)Nc3ccc(F)cc32)c1C [Sunitinib, sunitinib, reference compound]', 3),
  ('COc1ccc(/C=C/c2cccc(NC(=O)Nc3ccc(Br)cc3)c2)cc1', 1),
  ('CNC(=O)c1cc(Oc2ccc(NC(=O)Nc3ccc(Cl)c(C(F)(F)F)c3)cc2)ccn1 [Sorafenib, sorafenib, reference compound]', 10);

Exercise: Give the measured Minimum Active Conc. (inhibition of tube formation) of `COc1ccc(/C=C\c2cccc(NC(=O)Nc3ccc(Br)cc3)c2)cc1` .
Key: 10

----------
Molecular target: PD-L1 (Homo sapiens, UniProt Q9NZQ7)
Sequence (Q9NZQ7 19-290): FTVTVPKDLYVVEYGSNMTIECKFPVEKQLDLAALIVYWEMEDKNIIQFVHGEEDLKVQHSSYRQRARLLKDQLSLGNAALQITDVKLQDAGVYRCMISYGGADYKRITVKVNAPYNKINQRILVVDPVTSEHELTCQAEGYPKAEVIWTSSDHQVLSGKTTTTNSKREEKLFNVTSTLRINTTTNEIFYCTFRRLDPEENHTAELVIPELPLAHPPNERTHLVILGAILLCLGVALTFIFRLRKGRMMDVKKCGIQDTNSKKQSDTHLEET
Assay: PD-L1 quantification by flow cytometry in A-549
Assay type: cell-based
Parameters: endogenous in cells; host or cells: A-549 cancer cells
Conditions: A-549, 10 μM, 24 h, referred to control (DMSO)
Parameter Measured: PD-L1 (%) relative expression

Past entries and their recorded results:
INSERT INTO results (compound, reported_value) VALUES
  ('COc1ccc(/C=C/c2cccc(NC(=O)Nc3ccc(OC)cc3)c2)cc1 [Compound 26]', 50),
  ('COc1ccc(/C=C\c2cccc(NC(=O)Nc3ccccc3OC)c2)cc1 [Compound 17]', 79),
  ('COc1ccc(CCc2cccc(NC(=O)Nc3cccc(OC)c3)c2)cc1 [Compound 32]', 59);

[1] Cc1c(COc2ccc(CN3CCCCC3C(=O)O)cc2Br)cccc1-c1ccccc1 (stereo not drawn) [BMS-8, reference compound]
[2] COc1ccc(/C=C/c2cccc(NC(=O)Nc3ccc(Br)cc3)c2)cc1 [Compound 23]
[3] COc1ccc(CCc2cccc(NC(=O)Nc3ccc(OC)cc3)c2)cc1 [Compound 33]
[4] COc1ccc(/C=C\c2cccc(NC(=O)Nc3ccc(Br)cc3)c2)cc1 [Compound 16]
[5] COc1ccc(/C=C\c2cccc(NC(=O)Nc3ccc(OC)cc3)c2)cc1 [Compound 19]
Exercise: # rank by PD-L1 (%) relative expression, ascending (min first) Dear reader, please state the labels in the requested order.
Key: 2, 4, 3, 1, 5
(2: 16%, 4: 23%, 3: 42%, 1: 68%, 5: 98%)

----------
Target: VEGFR-2 (Homo sapiens, UniProt P35968)
Sequence (P35968 20-1356): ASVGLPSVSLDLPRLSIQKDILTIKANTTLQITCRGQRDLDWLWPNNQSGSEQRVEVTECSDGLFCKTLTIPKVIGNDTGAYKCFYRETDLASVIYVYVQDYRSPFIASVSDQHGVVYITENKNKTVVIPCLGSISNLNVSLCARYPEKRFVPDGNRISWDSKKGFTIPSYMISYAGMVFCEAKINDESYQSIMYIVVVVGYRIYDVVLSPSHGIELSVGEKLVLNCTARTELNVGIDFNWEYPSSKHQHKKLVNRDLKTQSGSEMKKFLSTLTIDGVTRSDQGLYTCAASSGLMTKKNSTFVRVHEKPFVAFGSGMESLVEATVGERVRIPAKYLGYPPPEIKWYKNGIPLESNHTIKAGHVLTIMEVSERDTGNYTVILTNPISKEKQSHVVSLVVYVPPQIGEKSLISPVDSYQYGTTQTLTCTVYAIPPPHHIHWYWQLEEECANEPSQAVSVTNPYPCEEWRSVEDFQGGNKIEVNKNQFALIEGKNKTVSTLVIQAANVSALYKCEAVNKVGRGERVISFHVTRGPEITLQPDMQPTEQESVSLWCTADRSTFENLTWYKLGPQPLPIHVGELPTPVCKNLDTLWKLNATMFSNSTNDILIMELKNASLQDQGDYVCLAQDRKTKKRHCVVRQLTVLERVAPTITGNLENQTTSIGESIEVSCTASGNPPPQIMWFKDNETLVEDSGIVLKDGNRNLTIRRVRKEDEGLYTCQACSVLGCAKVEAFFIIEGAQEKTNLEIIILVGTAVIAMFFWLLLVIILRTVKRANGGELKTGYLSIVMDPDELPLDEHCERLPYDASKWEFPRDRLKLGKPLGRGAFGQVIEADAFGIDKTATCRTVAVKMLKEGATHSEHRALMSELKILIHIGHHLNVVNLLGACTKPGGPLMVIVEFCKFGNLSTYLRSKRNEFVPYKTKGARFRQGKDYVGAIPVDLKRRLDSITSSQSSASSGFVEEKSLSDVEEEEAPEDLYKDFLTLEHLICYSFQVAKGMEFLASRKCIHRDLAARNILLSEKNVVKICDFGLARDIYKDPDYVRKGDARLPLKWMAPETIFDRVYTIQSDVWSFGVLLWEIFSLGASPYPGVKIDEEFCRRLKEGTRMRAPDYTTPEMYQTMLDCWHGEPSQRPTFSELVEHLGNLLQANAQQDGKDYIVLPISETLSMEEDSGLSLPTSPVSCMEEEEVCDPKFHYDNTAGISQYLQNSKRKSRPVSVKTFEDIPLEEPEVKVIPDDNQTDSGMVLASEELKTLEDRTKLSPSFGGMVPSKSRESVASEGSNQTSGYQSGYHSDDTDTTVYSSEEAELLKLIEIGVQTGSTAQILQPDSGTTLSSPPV
Assay: VEGFR-2 quantification by flow cytometry in HT-29
Type: cell-based
Design: Both membrane and total VEGFR-2 were relatively determined using dimethyl sulfoxide (DMSO) treated cells as a negative control; endogenous in cells; host or cells: HT-29 (colon adenocarcinoma) and HMEC-1 (human microvascular endothelial cells)
Conditions: HT-29, 10 µM, 24 h, relative to DMSO control
Parameter Measured: Membrane VEGFR-2 (%)

Field: example entries. Status: answers known.
INSERT INTO measurements (molecular_string, reported_value) VALUES
  ('COc1ccc(CCc2cccc(NC(=O)Nc3cccc(OC)c3)c2)cc1', 76),
  ('COc1ccc(/C=C/c2cccc(NC(=O)Nc3ccc(OC)cc3)c2)cc1', 68),
  ('COc1ccc(CCc2cccc(NC(=O)Nc3ccc(OC)cc3)c2)cc1', 68),
  ('COc1ccc(/C=C/c2cccc(NC(=O)Nc3ccc(Br)cc3)c2)cc1', 36),
  ('COc1ccc(/C=C\c2cccc(NC(=O)Nc3ccc(Br)cc3)c2)cc1', 39);

[I] COc1ccc(/C=C\c2cccc(NC(=O)Nc3ccc(OC)cc3)c2)cc1
[II] COc1ccc(/C=C\c2cccc(NC(=O)Nc3ccccc3OC)c2)cc1
Exercise: # returns the entry with the larger Membrane VEGFR-2 (%); inputs I and II Give the label of your selection.
Key: I
(I: 88%, II: 47%)

----------
Tested on: MCF-7 (breast adenocarcinoma)
Test: Cell proliferation assay (MTT)
Format: cell-based
Settings: Homo sapiens, MCF7, 48 h, 2 days incubation, average ± SD of three experiments
Parameter Measured: IC50 (µM)

INSERT INTO measurements (compound, parameter_measured, reported_value) VALUES
  ('COc1ccc(CCc2cccc(NC(=O)Nc3ccccc3OC)c2)cc1 [Compound 31]', 'IC50', 10),
  ('COc1ccc(/C=C/c2cccc(NC(=O)Nc3cccc(OC)c3)c2)cc1 [Compound 25]', 'IC50', 1.1),
  ('COc1ccc(/C=C\c2cccc(NC(=O)Nc3ccccc3)c2)cc1 [Compound 13]', 'IC50', 30),
  ('CNC(=O)c1cc(Oc2ccc(NC(=O)Nc3ccc(Cl)c(C(F)(F)F)c3)cc2)ccn1 [Sorafenib, sorafenib, reference compound]', 'IC50', 14),
  ('COc1ccc(/C=C/c2cccc(NC(=O)Nc3ccccc3)c2)cc1 [Compound 20]', 'IC50', 2.3),
  ('COc1ccc(CCc2cccc(NC(=O)Nc3ccccc3Br)c2)cc1 [Compound 28]', 'IC50', 5);

[I] COc1ccc(/C=C\c2cccc(NC(=O)Nc3cccc(Br)c3)c2)cc1 [Compound 15]
[II] COc1ccc(CCc2cccc(NC(=O)Nc3ccccc3)c2)cc1 [Compound 27]
Exercise: Please compare: I and II . Report which one has the smaller IC50 value. # respond with the chosen item's label
Key: II
(II: 12.8 µM, I: 28 µM)

----------
System: HMEC-1 (human microvascular endothelial cells)
Test: Cell proliferation assay (MTT)
Type: cell-based
Settings: HMEC-1, 48 h, 2 days incubation, average ± SD of three experiments
Parameter Measured: pIC50
Just so you know, pIC50 here is -log10 of the concentration in molar units; reply with that number alone.

Exercise: So what's the measured pIC50 for this one? `COc1ccc(/C=C\c2cccc(NC(=O)Nc3cccc(OC)c3)c2)cc1`
Key: 5.37

Exercise: Now the compound `COc1ccc(/C=C\c2cccc(NC(=O)Nc3ccccc3OC)c2)cc1`
Key: 5.00

Exercise: Moving on to the next compound: `COc1ccc(/C=C/c2cccc(NC(=O)Nc3cccc(OC)c3)c2)cc1`
Key: 5.37

Exercise: And for `COc1ccc(CCc2cccc(NC(=O)Nc3ccc(OC)cc3)c2)cc1` ?
Key: 6.05
